Assay: CMV-Luciferase Counterscreen for Inhibitors of ATXN expression; also: nearly all actives have a fitted effect of over 55% in size
Details: HEK-293 CMV-luciferase reporter, luminescence, 24 h; series mostly up to 57.5 µM
The whole screen tested about 2,100 compounds, of which about 670 (32%) were called active. Not shown: some 50% with an inconclusive outcome. Calls follow the shape of the dose curve; as a rule, active = well fitted inhibition curve with a large enough effect; inconclusive = small, poorly fitted or top-dose-only effect; inactive = no such curve, though single readings can be large or run the other way. The list shows a part of the results.
Classes used: active, inactive

{"Compound": "COc1cccc2c1C(=N)c1c(O)c3c(c(O)c1C2=O)CC(O)(C(C)=O)CC3OC1CC(N)C(O)C(C)O1 (stereo not given)", "Category label": "active"}
{"Compound": "CC(C)CC(=NNC(=O)c1ccncc1)c1cc(Cl)ccc1O", "Category label": "active"}
{"Compound": "COc1cccc(/C=N/NC(=O)c2c(C)nc3ccc(Cl)cn23)c1O", "Category label": "active"}
{"Compound": "COc1cccc2c1C(=O)C=C(C)C2=O", "Category label": "active"}
{"Compound": "N#Cc1c(N)n(C2OC(CO)C(O)C2O)c2ncnc(N)c12 (stereo not given)", "Category label": "inactive"}
{"Compound": "COc1ccccc1/C=C\\C(=O)NCC(=O)N/N=C/c1cccc(OC)c1O", "Category label": "active"}
{"Compound": "CN(C)CCCN(C(=O)c1ccco1)c1nc2cc3c(cc2s1)OCO3", "Category label": "inactive"}
{"Compound": "COc1cc(C(=O)NCc2ccncc2)cc(Br)c1OCc1ccccc1", "Category label": "active"}
{"Compound": "COc1cc(CNCc2ccncc2)cc(Br)c1OCc1ccccc1F", "Category label": "active"}
{"Compound": "Cc1cccc(N(CC(O)CON=C2c3ccccc3-c3ccccc32)S(C)(=O)=O)c1 (stereo not given)", "Category label": "active"}
{"Compound": "Cc1ccc(Cl)cc1N1CCN(C(=O)CCS(=O)(=O)c2ccc3c(c2)NC(=O)CO3)CC1", "Category label": "active"}
{"Compound": "O=C(N/N=C(\\Cc1ncc[nH]1)c1ccccc1)c1cccnc1", "Category label": "active"}
{"Compound": "O=C(Nc1cccc(S(=O)(=O)C(F)F)c1)c1ccc(Cl)c(S(=O)(=O)N2CCOCC2)c1", "Category label": "active"}
{"Compound": "CCCCC(=O)OCC(=O)C1(O)Cc2c(O)c3c(c(O)c2C(OC2CC(NC(=O)C(F)(F)F)C(O)C(C)O2)C1)C(=O)c1c(OC)cccc1C3=O (stereo not given)", "Category label": "active"}
{"Compound": "O=c1c2c(nc3c(-c4ccc(Cl)cc4)c[nH]n13)CCCC2", "Category label": "active"}
{"Compound": "CN(C)CCCN(C(=O)c1ccc(S(=O)(=O)N(C)Cc2ccccc2)cc1)c1nc2c(F)cccc2s1", "Category label": "inactive"}
{"Compound": "C[C@H]1O[C@@H](O[C@H]2[C@@H](O)C[C@H](O[C@H]3[C@@H](O)C[C@H](O[C@H]4CC[C@@]5(C)[C@H](CC[C@@H]6[C@@H]5C[C@@H](O)[C@]5(C)[C@@H](C7=CC(=O)OC7)CC[C@]65O)C4)O[C@@H]3C)O[C@@H]2C)C[C@H](O)[C@@H]1O", "Category label": "inactive"}
{"Compound": "O=C(Nc1nc(-c2ccc(S(=O)(=O)N3CCOCC3)cc2)cs1)c1ccccc1", "Category label": "active"}
{"Compound": "CC(C)(C)c1ccc(Oc2ccc(N)cc2)cc1", "Category label": "active"}
{"Compound": "CC1CCCN(S(=O)(=O)c2ccc(C(=O)Nc3nnc(-c4ccccc4Cl)o3)cc2)C1 (stereo not given)", "Category label": "active"}
{"Compound": "N=c1n(CCCOc2ccccc2Cl)c2ccccc2n1CC(N)=O", "Category label": "inactive"}
{"Compound": "O=c1c2c(nc3c(-c4cccc(Br)c4)c[nH]n13)CCCC2", "Category label": "active"}
{"Compound": "CCn1c(C)nc2cc(C(=O)N/N=C/c3cccc(OC)c3O)ccc21", "Category label": "active"}
{"Compound": "CN(C)CCNC(=O)c1cccc(-c2cnc3c(NC=O)cc(/C=C/c4ccccc4)cn23)c1", "Category label": "inactive"}
{"Compound": "CCN(CC)c1ccc(/C=N/NC(=O)CNC(=O)C2COc3ccccc3O2)c(O)c1 (stereo not given)", "Category label": "active"}

* * *

Assay: CMV-Luciferase Counterscreen for Inhibitors of ATXN expression; also: nearly all actives have a fitted effect of over 55% in size
Conditions: HEK-293 CMV-luciferase reporter, luminescence, 24 h; series mostly up to 57.5 µM
The whole screen tested about 2,100 compounds, of which about 670 (32%) were called active. Another 50% or so got no clear call; they are omitted. Calls come from the whole dose curve; as a rule, active = well fitted inhibition curve with a large enough effect; inconclusive = small, poorly fitted or top-dose-only effect; inactive = no such curve, though single readings can be large or run the other way. Some of the results follow.
Outcome codes: label 1 for active, label 0 for inactive

{"Compound": "Cc1cc(C(=O)CN2C(=O)c3ccccc3S2(=O)=O)c(C)n1C(C)C", "Category label": "label 1"}
{"Compound": "C=CCc1cccc(/C=N/NC(=O)C(C)Nc2ccc(C)cc2)c1O (stereo unspecified)", "Category label": "label 1"}
{"Compound": "O=C(Nc1ccccc1Cl)N1CCCN(c2nc(-c3ccccc3)ns2)CC1", "Category label": "label 1"}
{"Compound": "Nc1nc(NCCCN2CCOCC2)nc(Nc2ccccc2F)c1[N+](=O)[O-]", "Category label": "label 0"}
{"Compound": "COc1cccc(CC2(CO)CCCN(Cc3[nH]c4ccc(C)cc4c3C)C2)c1 (stereo unspecified)", "Category label": "label 0"}
{"Compound": "O=[N+]([O-])c1ccc(/C=N/N=C/c2ccc([N+](=O)[O-])o2)o1", "Category label": "label 1"}
{"Compound": "COc1ccc(/C=C/C(=O)Nc2ccc(C)c(S(=O)(=O)N3CCOCC3)c2)cc1", "Category label": "label 1"}
{"Compound": "Oc1ccc(N2CCN(c3ccnc4cc(Cl)ccc34)CC2)cc1", "Category label": "label 1"}
{"Compound": "Cn1c(=O)c2c(nc(CN3CCN(Cc4ccccc4)CC3)n2Cc2ccc(Cl)cc2)n(C)c1=O", "Category label": "label 1"}
{"Compound": "O=C(N/N=C/c1ccccc1O)c1cccc(C(F)(F)F)c1", "Category label": "label 1"}
{"Compound": "CCc1ccc(CNC(=O)c2cc3c(C)nc4ccccc4c3o2)cc1", "Category label": "label 1"}
{"Compound": "C=CCc1cccc(/C=N/NC(=O)c2ccccc2Br)c1O", "Category label": "label 1"}
{"Compound": "CN(C)c1ccc(C(=O)N/N=C/c2cc(Br)cc(Br)c2O)cc1", "Category label": "label 1"}
{"Compound": "Cc1ccnc(NC(=S)N2CCN(c3cccc(C(F)(F)F)c3)CC2)c1", "Category label": "label 0"}
{"Compound": "Cc1cnc(NC(=O)CCCc2nc3ccccc3s2)s1", "Category label": "label 0"}
{"Compound": "COc1ccc(-c2noc(CCCC(=O)NC3CCCC3)n2)cc1", "Category label": "label 1"}
{"Compound": "COc1ccc(C(=O)NCC(=O)N/N=C/c2ccc([N+](=O)[O-])s2)cc1OC", "Category label": "label 1"}
{"Compound": "Cc1nc2ncnn2c(N2CCN(c3cccc(C(F)(F)F)c3)CC2)c1C", "Category label": "label 1"}
{"Compound": "O=C(N/N=C\\c1c(O)ccc2ccccc12)c1ccc(Cn2cccn2)o1", "Category label": "label 1"}
{"Compound": "O=C(Nc1ccc2c(c1)CCC2)C1CCN(c2c3c(nc4ncnn24)CCC3)CC1", "Category label": "label 1"}
{"Compound": "O=C(CSc1ccc2c(c1)OCCO2)Nc1ccc(Cl)cn1", "Category label": "label 0"}

FYI, the data here is from PubChem BioAssay AID1745847.
